- assay_method_text: NCI Yeast Anticancer Drug Screen. Data for the cln2 rad14 strain (AID 165);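 note: 0% = growth equal to vehicle treated cultures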
- conditions_used: S. cerevisiae cln2 rad14 strain, at 50.0 µM, hits give high values
The panel holds about 79,000 compounds, 15% with a hit somewhere; the sample as a whole holds those more often.
# growth inhibition listing for each entry below
Give the value in % but do not write % after it.

- molecule: "CC(C)C1=CC23CCC4C(C)(C(=O)O)CCCC4(C)C2CC1C1C(=O)N(c2ccccc2)C(=O)C13 (centres undefined)"
  growth inhibition / %: 0.7
- molecule: "O=S(=O)(NCCNS(=O)(=O)c1ccccc1)c1ccccc1"
  growth inhibition / %: -44.5
- molecule: "CC(=O)Oc1ccc(C2c3cc(OC(C)=O)c(OC(C)=O)cc3CC3C(=O)OCC32)cc1OC(C)=O (centres undefined)"
  growth inhibition / %: -36.3

Exercise: Return reported growth inhibition; argument: [Cu+2].[O-]C1c2c(ccc3ccccc23)-c2ccccc2C1N=Nc1ccccc1.[O-]c1c(N=Nc2ccccc2)c2ccccc2c2ccc3ccccc3c12 (centres undefined)
Solution: -20.4

Exercise: Return reported growth inhibition; argument: COc1ccc(C)cc1NC(=S)NC(=O)C(C)Oc1ccccc1 (centres undefined)
Solution: -27

Exercise: Return reported growth inhibition; argument: C[C@]12CC[C@@H]3c4ccc(O)cc4CC[C@H]3[C@@H]1CC[C@@H]2OP(=O)(O)O
Solution: -27.4

* * *

# growth inhibition listing for each entry below
- assay_method_text: NCI Yeast Anticancer Drug Screen. Data for the mec2-1 strain (AID 157)
- conditions_used: S. cerevisiae mec2-1 strain, at 50.0 µM, hits give high values
The panel holds about 79,000 compounds, 15% with a hit somewhere; the sample as a whole holds those more often.
Give the value in % but do not write % after it.

- compound: "CCCCN(CCCC)CC(O)c1c2cccc(Cl)c2cc2c(Cl)cccc12 (configuration not stated)"
  growth inhibition, %: 99.5
- compound: "Cc1ccc(Nc2nnc(Nc3ccc(C)cn3)c3ccccc23)nc1"
  growth inhibition, %: -12.4
- compound: "N#CCCN(C(=O)COc1ccc(Cl)cc1Cl)C1CCCCC1"
  growth inhibition, %: 87.7
- compound: "CC(CO)N1CCCCCC1 (configuration not stated)"
  growth inhibition, %: -15.7
- compound: "NC(=O)c1cc2c(c3c1CCCC3)CCCC2"
  growth inhibition, %: -6.6
- compound: "COc1cc([C@H]2CC(=O)C[C@H](c3cc(OC)c(OC)c(OC)c3)C23C(=O)c2ccccc2C3=O)cc(OC)c1OC"
  growth inhibition, %: 11.9
- compound: "O=c1[nH]cnc2c1sc(=S)n2-c1ccccc1"
  growth inhibition, %: -10.5
- compound: "Cc1ccc(C)c2nc3c(C)ccc(C)c3cc12"
  growth inhibition, %: 1.4
- compound: "CCOC(=O)c1[nH]cnc1N"
  growth inhibition, %: 11.1
- compound: "OC/C(Cc1cccc(O)c1)=C(/CO)Cc1cccc(O)c1"
  growth inhibition, %: 7.3

Exercise: Return reported growth inhibition; argument: Nc1ccccc1CCO
Solution: -6.75

Exercise: Return reported growth inhibition; argument: CCOC(=O)c1cnc(=O)n(Cc2ccccc2)c1N
Solution: 0.65

* * *

- assay_method_text: NCI Yeast Anticancer Drug Screen. Data for the cln2 rad14 strain (AID 165);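 note: 0% = growth equal to vehicle treated cultures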
- conditions_used: S. cerevisiae cln2 rad14 strain, at 50.0 µM, hits give high values
The panel holds about 79,000 compounds, 15% with a hit somewhere; the sample as a whole holds those more often.
quantity_name: growth inhibition (%)
Give the value in % but do not write % after it.

Some molecules with recorded growth inhibition:
- molecule: "COc1cc(/C=N/N2CN(C(C)C(=O)O)B(NCCC(C)C)N=C2N)cc(OC)c1 (stereo not drawn)"
  value_units: "%"
  growth inhibition: -3.7
- molecule: "NCCCCN(CCCN)C(=O)c1ccccc1"
  value_units: "%"
  growth inhibition: 1.8
- molecule: "Nc1cc(N)n(C2=NCCN2)n1"
  value_units: "%"
  growth inhibition: 11.1
- molecule: "CN1C/C(=C\\c2ccc(N(C)C)cc2)C(=O)/C(=C/c2ccc(N(C)C)cc2)C1"
  value_units: "%"
  growth inhibition: -1.35
- molecule: "CCN(CC)c1cccc(C(=O)OCCNCC(C)C)c1"
  value_units: "%"
  growth inhibition: -39.7

// moving on: another record for growth inhibition
Exercise: Return reported growth inhibition; argument: CCCC(Sc1nc(N)nc2nc[nH]c12)C(=O)O (stereo not drawn)
Solution: -24.3
